Cited source: ChEMBL document CHEMBL3352269

target.of.assay: G-protein coupled receptor 39 (Homo sapiens, UniProt O43194)
Sequence (O43194 whole entry): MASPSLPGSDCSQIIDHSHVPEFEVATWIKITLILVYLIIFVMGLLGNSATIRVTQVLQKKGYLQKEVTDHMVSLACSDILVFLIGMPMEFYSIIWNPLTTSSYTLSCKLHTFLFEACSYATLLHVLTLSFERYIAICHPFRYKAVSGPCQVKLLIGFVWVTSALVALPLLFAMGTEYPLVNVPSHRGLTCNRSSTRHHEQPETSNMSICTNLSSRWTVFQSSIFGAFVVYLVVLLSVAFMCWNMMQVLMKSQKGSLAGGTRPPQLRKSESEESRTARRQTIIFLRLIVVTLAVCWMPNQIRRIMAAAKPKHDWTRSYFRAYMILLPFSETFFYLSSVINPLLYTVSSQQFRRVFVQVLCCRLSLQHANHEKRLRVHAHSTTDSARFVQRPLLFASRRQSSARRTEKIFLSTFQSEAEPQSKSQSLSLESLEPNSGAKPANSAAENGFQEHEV
assay.summary: Agonist activity at human GPR39 expressed in HEK293 cells by IP1 assay
Type: functional, cell-based
pEC50: −log10 of the molar value.
readout.kind: pEC50

Check out these entries, answers already filled in.
CNc1nc(NCc2ccc(Cl)cc2)cc(-c2ccccn2)n1	7.82
c1ccc(-c2cc(NCC3CC3)ncn2)nc1	4.66
CNc1nc(NCc2ccc(S(C)(=O)=O)cc2)cc(-c2ccccn2)n1	7.44
CNc1nc(NCc2ccc(OC(F)(F)F)cc2)cc(-c2ccccn2)n1	7.89
Cc1nc(NCc2ccc(Cl)cc2)cc(-c2ccccn2)n1	7.09

1. CNc1nc(NCc2ccc(NC(C)=O)cc2)cc(-c2ccccn2)n1
2. CNc1nc(NC2(c3ccc(Cl)cc3)CCC2)cc(-c2ccccn2)n1
3. CNc1nc(NCC(C)(C)C)cc(-c2ccccn2)n1
-- ask Sort ascending by pEC50. Please respond with the labels ordered as the question requires.
-- reply 3, 2, 1

A. CNC(=O)c1ccc(CNc2cc(-c3ccccn3)nc(NC)n2)cc1
B. FC(F)(F)Oc1ccc(CNc2nc(NCC3CC3)cc(-c3ccccn3)n2)cc1
-- ask Identify the item whose pEC50 is the smaller number: A or B # respond with the chosen item's label
-- reply B

I. CNc1nc(NCc2ccc(NC(C)=O)cc2F)cc(-c2ccccn2)n1
II. CNc1nc(NCC2CCCCC2)cc(-c2ccccn2)n1
III. CNc1nc(NCC2CC2)cc(-c2ccccn2)n1
IV. CNc1nc(NCc2ccc(NS(C)(=O)=O)cc2)cc(-c2ccccn2)n1
-- ask Arrange by pEC50, high to low. As an answer, provide the labels arranged in the order called for.
-- reply I, IV, II, III
(I: 9.00, IV: 8.52, II: 7.96, III: 6.79)
